# system: Cytochrome P450 2D6 (Homo sapiens, UniProt P10635)
# Sequence (P10635 whole entry): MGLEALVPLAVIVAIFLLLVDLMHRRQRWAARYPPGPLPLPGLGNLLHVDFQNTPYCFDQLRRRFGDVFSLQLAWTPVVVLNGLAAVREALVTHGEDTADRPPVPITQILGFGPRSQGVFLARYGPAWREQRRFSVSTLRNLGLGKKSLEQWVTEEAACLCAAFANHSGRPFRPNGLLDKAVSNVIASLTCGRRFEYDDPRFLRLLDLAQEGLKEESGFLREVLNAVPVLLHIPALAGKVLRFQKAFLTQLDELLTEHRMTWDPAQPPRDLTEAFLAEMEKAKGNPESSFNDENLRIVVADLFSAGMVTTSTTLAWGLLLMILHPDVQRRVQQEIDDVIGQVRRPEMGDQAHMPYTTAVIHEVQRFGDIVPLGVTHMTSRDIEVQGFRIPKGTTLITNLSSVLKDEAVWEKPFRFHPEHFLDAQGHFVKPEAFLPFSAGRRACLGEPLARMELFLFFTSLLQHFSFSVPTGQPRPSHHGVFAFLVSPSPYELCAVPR
# protocol_summary: Inhibition of human recombinant CYP2D6
readout_label: IC50 (µM)
Answer format: numeric, µM implied, no suffix.

{"columns": ["compound", "unit_descriptor", "IC50"],
 "data": [
  ["CN(c1ccc2cn(C)nc2c1)c1ccnc(Nc2cccc(S(N)(=O)=O)c2)n1", "µM", 18],
  ["Cc1c2ccc(N(C)c3ccnc(Nc4cccc(S(N)(=O)=O)c4)n3)cc2nn1C", "µM", 16],
  ["Cc1c2ccc(N(C)c3ccnc(Nc4cccc(S(N)(=O)=O)c4)n3)cc2nn1Cc1ccccc1", "µM", 66]
]}

Input line: Under Cytochrome P450 2D6 (Homo sapiens, UniProt P10635): IC50 value of Cc1nc2cc(N(C)c3ccnc(Nc4cccc(S(N)(=O)=O)c4)n3)ccc2n1C ?
Output line: 33

Input line: Entry Cc1nc2ccc(N(C)c3ccnc(Nc4cccc(S(N)(=O)=O)c4)n3)cc2n1C , system Cytochrome P450 2D6 (Homo sapiens, UniProt P10635): what IC50 was measured?
Output line: 25

Input line: For Cytochrome P450 2D6 (Homo sapiens, UniProt P10635), provide IC50 of Cc1n[nH]c2cc(N(C)c3ccnc(Nc4cccc(S(N)(=O)=O)c4)n3)ccc12 please.
Output line: 4.8

Input line: Lab request: please report IC50 under test system Cytochrome P450 2D6 (Homo sapiens, UniProt P10635) for Cc1nn(C)c2cc(N(C)c3ccnc(Nc4cccc(S(N)(=O)=O)c4)n3)ccc12 [GW770220A]
Output line: 6.3

* * *

# protocol_summary: Clearance in rat at 10 mg/kg
# Assay type: ADME, organism-based
# Set-up: dose 10 mg/kg
# protocol_conditions: in vivo
readout_label: clearance (mL/min/kg)
Your answer should be a plain number; it is taken to be in mL/min/kg.

Input line: Look up clearance: CCS(=O)(=O)c1ccc(OC)c(Nc2nccc(Nc3ccc4c(C)n[nH]c4c3)n2)c1
Output line: 40

Input line: Request the reported clearance associated with CCS(=O)(=O)c1ccc(OC)c(Nc2nccc(N(C)c3ccc4c(C)n[nH]c4c3)n2)c1
Output line: 10

Input line: Need clearance, item Cc1ccc(Nc2nccc(N(C)c3ccc4c(C)n(C)nc4c3)n2)cc1S(N)(=O)=O
Output line: 1.4

Input line: # lookup: clearance of COc1cc(Nc2nccc(Nc3ccc4c(C)n[nH]c4c3)n2)cc(OC)c1OC [GW612286X]
Output line: 16

* * *

# protocol_summary: AUC (0 to infinity) in mouse at 30 mg/kg, po
# Type: ADME, organism-based
# Set-up: dose 30 mg/kg, route oral, time infinity
# protocol_conditions: plasma
readout_label: AUC(0-inf) (µg·h/mL)
Reply with just the number (in µg·h/mL).

Input line: Need AUC(0-inf) of Cc1ccc(Nc2nccc(N(C)c3ccc4c(C)n(C)nc4c3)n2)cc1S(N)(=O)=O [PAZOPANIB] , thanks.
Output line: 657

* * *

# protocol_summary: Clearance in dog at 1 mg/kg
# Type: ADME, organism-based, Canis lupus familiaris
# Design: dose 1 mg/kg
# protocol_conditions: in vivo
readout_label: clearance
Please state the number and follow it with the unit.

Input line: // lookup clearance for Cc1ccc(Nc2nccc(N(C)c3ccc4c(C)n(C)nc4c3)n2)cc1S(N)(=O)=O
Output line: 1.4 mL/min/kg
